Label Condition met for high-side O2 permeability (at or above 20 Barrer) and Condition not met for low-side O2 permeability (below it).

Illustrative cases are given below, each with its answer.
*c1ccc2c3c(ccc2c1)OC1Oc2ccc4cc(N5C(=O)c6ccc(C(c7ccc8c(c7)C(=O)N(*)C8=O)(C(F)(F)F)C(F)(F)F)cc6C5=O)ccc4c2C31 (repeat unit) : Condition not met
*c1ccc(-c2ccc(Oc3ccc(C4(c5ccc(Oc6ccc(-c7ccc(N8C(=O)c9ccc(Oc%10ccc(C(C)(C)c%11ccc(Oc%12ccc%13c(c%12)C(=O)N(*)C%13=O)cc%11)cc%10)cc9C8=O)cc7)cc6C(F)(F)F)cc5)c5ccccc5C(=O)N4c4ccccc4)cc3)c(C(F)(F)F)c2)cc1 (repeat unit) : Condition not met
*Oc1ccc(-c2ccc(C3CCC(Oc4ccc(C5(c6ccc(*)cc6)c6ccccc6-c6ccccc65)cc4)C(C(F)(F)F)C3)s2)cc1C(F)(F)F (repeat unit) : Condition not met

Q: O2 permeability >= 20 Barrer for *C(=C(*)c1ccc(-c2ccccc2)cc1)c1ccccc1 (repeat unit) ?
Result: Condition met

Q: // inclusive: O2 permeability at least 20 Barrer? input: *C(=O)c1ccc(C(c2ccc3c(c2)C(=O)n2c-3nc3cc4nc(*)n(*)c4cc32)(C(F)(F)F)C(F)(F)F)cc1* (repeat unit)
Result: Condition not met

Q: I'd appreciate it if you could say whether *C(C)=C(*)[Si](C)(C)C (repeat unit) has O2 permeability at least equal to 20 Barrer.
Result: Condition met

----------
Sorting guide: entries reporting N2 permeability beneath 1 Barrer go in the Satisfied pile, the rest go in the Not satisfied pile.

*C(=C(*)c1ccc2c(c1)C(C)(C)CC2(C)C)c1ccc(F)c(F)c1 (repeat unit) : Not satisfied
*Oc1c(C)cc(C(C)(C)c2cc(C)c(OC(=O)c3cccc(C(*)=O)c3)c(Br)c2)cc1Br (repeat unit) : Satisfied
*C(C)=C(*)CCCCC (repeat unit) : Not satisfied
*c1ccc(Sc2ccc(Sc3ccc(Sc4ccc(Sc5ccc(N6C(=O)c7ccc(C(c8ccc9c(c8)C(=O)N(*)C9=O)(C(F)(F)F)C(F)(F)F)cc7C6=O)cc5)cc4)cc3)cc2)cc1 (repeat unit) : Satisfied
*c1cccc(S(=O)(=O)c2cccc(N3C(=O)c4ccc(C(c5ccc6c(c5)C(=O)N(*)C6=O)(C(F)(F)F)C(F)(F)F)cc4C3=O)c2)c1 (repeat unit) : Satisfied

Q: Is the reported N2 permeability for *c1ccc(Oc2ccc(C(c3ccc(Oc4ccc(N5C(=O)c6ccc(C(=O)c7ccc8c(c7)C(=O)N(*)C8=O)cc6C5=O)cc4C(F)(F)F)cc3)(C(F)(F)F)C(F)(F)F)cc2)c(C(F)(F)F)c1 (repeat unit) strictly below 1 Barrer?
Result: Satisfied

Q: Identify whether the molecule *c1c(C)cc2c(c1C)C1c3ccccc3C2c2cc(C)c(-n3c(=O)c4cc5c(=O)n(*)c(=O)c5cc4c3=O)c(C)c21 (repeat unit) records N2 permeability below 1 Barrer.
Result: Not satisfied

Q: Is the reported N2 permeability for *OC(=O)Oc1c(C)cc(C(C)(C)c2cc(C)c(*)c(C)c2)cc1C (repeat unit) strictly below 1 Barrer?
Result: Not satisfied

Q: Find out if reported N2 permeability for *c1ccc(*)n1C (repeat unit) is less than 1 Barrer
Result: Satisfied

Q: Here's an entry: *c1ccc(Cc2ccc(N3C(=O)c4ccc(C(c5ccc6c(c5)C(=O)N(*)C6=O)(C(F)(F)F)C(F)(F)F)cc4C3=O)c(O)c2)cc1O (repeat unit) . Is its N2 permeability below 1 Barrer?
Result: Satisfied

Q: State whether 1 Barrer exceeds N2 permeability recorded for *C(=C(*)c1ccc2c(c1)CCC2)c1ccccc1 (repeat unit) .
Result: Not satisfied

Q: Is 1 Barrer strictly greater than the molecule's reported N2 permeability? molecule: *C(=C(*)c1ccc([Si](C)(C)C)cc1)c1ccc(O[Si](C)(C)C(C)(C)C)cc1 (repeat unit)
Result: Not satisfied

Q: Could you please tell me whether N2 permeability recorded for *c1cc(C)c(C)c(N2C(=O)c3ccc(Oc4cc(C)c(Oc5ccc6c(c5)C(=O)N(*)C6=O)c(C)c4C)cc3C2=O)c1C (repeat unit) is less than 1 Barrer?
Result: Not satisfied

Q: In plain terms, does *O[Si](*)(C)CCC (repeat unit) come in under 1 Barrer for N2 permeability?
Result: Not satisfied
